These measurements were taken from patent US20010039287A1.

experimental.target: recombinant human MMP-2 (Homo sapiens, UniProt P08253)
Sequence (P08253 110-660): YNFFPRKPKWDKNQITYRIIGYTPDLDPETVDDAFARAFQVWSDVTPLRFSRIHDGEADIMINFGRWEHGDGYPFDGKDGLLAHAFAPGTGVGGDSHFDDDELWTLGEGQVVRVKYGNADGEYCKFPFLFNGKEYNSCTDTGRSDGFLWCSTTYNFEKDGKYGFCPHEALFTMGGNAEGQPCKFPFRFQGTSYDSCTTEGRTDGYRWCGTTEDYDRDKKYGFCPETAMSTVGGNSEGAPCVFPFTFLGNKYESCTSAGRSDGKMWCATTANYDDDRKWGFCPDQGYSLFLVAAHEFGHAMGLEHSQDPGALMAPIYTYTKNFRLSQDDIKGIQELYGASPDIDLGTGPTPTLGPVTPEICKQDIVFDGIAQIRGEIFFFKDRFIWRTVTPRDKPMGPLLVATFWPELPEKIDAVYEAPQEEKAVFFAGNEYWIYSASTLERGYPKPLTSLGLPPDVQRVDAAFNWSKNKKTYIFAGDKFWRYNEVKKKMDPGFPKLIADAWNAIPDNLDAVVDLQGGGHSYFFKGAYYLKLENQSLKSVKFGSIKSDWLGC
test.protocol: biochemical
test.context: Inhibition Table B; read-out: MMP-2 IC50
Counter-ions that a name gives are not always drawn.
Assign IC50 to each entry below.
Numbers only, in nM.

| compound | experimental.target | recorded.result |
| --- | --- | --- |
| CN(c1ccccc1)c1ccc(S(=O)(=O)C2(C(=O)NO)CCNCC2)cc1 [Example 92, Monohydrochloride] | recombinant human MMP-2 (Homo sapiens, UniProt P08253) | 1800 |
| O=C(NO)C1(S(=O)(=O)c2ccc(NCc3ccccc3)cc2)CCOCC1 [Example 68, Monohydrochloride] | recombinant human MMP-2 (Homo sapiens, UniProt P08253) | 5.3 |
| O=C(C1CCCN(c2ccc(S(=O)(=O)C3(C(=O)NO)CCOCC3)cc2)C1)N1CCOCC1 (stereo not drawn) | recombinant human MMP-2 (Homo sapiens, UniProt P08253) | 1000 |
| Cc1ccccc1-c1ccc(S(=O)(=O)C2(C(=O)NO)CCOCC2)cc1 | recombinant human MMP-2 (Homo sapiens, UniProt P08253) | 54 |
| CC(C)c1ccc(Oc2ccc(S(=O)(=O)C3(C(=O)NO)CCOCC3)cc2)cc1 | recombinant human MMP-2 (Homo sapiens, UniProt P08253) | 0.4 |
| O=C(O)CNc1ccc(Oc2ccc(S(=O)(=O)C3(C(=O)NO)CCSCC3)cc2)cc1 | recombinant human MMP-2 (Homo sapiens, UniProt P08253) | 0.6 |

I have 7 compounds here; please give me IC50 for each one.
1. O=C(NO)C1(S(=O)(=O)c2ccc(Sc3ccc(O)cc3)cc2)CCSCC1
2. NCCc1ccc(Oc2ccc(S(=O)(=O)C3(C(=O)NO)CCSCC3)cc2)cc1
3. CC(=O)N1CCC(C(=O)NO)(S(=O)(=O)c2ccc(Oc3ccc4c(c3)OCO4)cc2)CC1 [Example 37, Monohydrochloride]
4. O=C(NO)C1(S(=O)(=O)c2ccc(Oc3ccc(Cl)cc3)cc2)CCN(CCN2CCOCC2)CC1 [Example 89, Dihydrochloride]
5. O=C(NO)C1(S(=O)(=O)c2ccc(N3CCC(Oc4ccc5c(c4)OCO5)CC3)cc2)CCOCC1 [Example 63, Monohydrochloride]
6. O=C(NO)C1(S(=O)(=O)c2ccc(Sc3ccc(Cl)c(Cl)c3)cc2)CCOCC1
7. O=C(O)CN1CCC(C(=O)NO)(S(=O)(=O)c2ccc(Oc3ccc(Cl)cc3)cc2)CC1 [Example 88, Monohydrochloride]

1: 0.65; 2: 2; 3: 0.2; 4: 0.15; 5: 18.1; 6: 64; 7: 0.2

I have 2 compounds here; please give me IC50 for each one.
1. O=C(C1CCCCC1)N1CCN(c2ccc(S(=O)(=O)C3(C(=O)NO)CCOCC3)cc2)CC1
2. CC(=O)N1CCC(C(=O)NO)(S(=O)(=O)c2ccc(Sc3ccccc3)cc2)CC1.Cl [Example 36, Monohydrochloride]

1: 24; 2: 0.4
